Values compiled from patent US20260174875A1.

Below, each entry is listed with its recorded hGIPR Potency, no HSA, EC50 [pM].
Target: T1, human GIP receptor (human, UniProt P48546 22-466)
T1 sequence (looked up): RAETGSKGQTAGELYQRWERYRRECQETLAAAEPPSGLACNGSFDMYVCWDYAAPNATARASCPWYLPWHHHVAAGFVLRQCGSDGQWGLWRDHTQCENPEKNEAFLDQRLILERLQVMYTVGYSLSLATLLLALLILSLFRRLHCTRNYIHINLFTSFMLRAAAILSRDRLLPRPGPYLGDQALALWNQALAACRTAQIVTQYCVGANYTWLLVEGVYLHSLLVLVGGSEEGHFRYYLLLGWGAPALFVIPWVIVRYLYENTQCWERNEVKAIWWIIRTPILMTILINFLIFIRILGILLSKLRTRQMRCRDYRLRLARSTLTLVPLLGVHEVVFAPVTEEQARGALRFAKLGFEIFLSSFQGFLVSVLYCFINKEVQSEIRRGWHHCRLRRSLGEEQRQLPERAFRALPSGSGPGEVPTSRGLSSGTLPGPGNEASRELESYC
Assay: cell-based or functional assay
Square brackets hold non-standard residues; d marks the D form. Chem. 27 = not defined here; Aib = CC(C)(N)C(=O)O
# number only, unit pM dropped from output

binder	testValue
Compound 183 (reading uncertain) peptide: Y[Aib]EGTFTSDYSK(Chem. 27)LLEEIAAREFIEWLLAGGPSSGAGASELSTAQLGRLSAELHQLATLPRTETGSGSP-NH2	2
Compound 210 (also: further groups not given here) peptide: Y[Aib]EGTFTSDYSILLEEQAAREFIEWLLAGGPSSGAGQAPGQAPGASHLSTAQTQRLSAELHKLATLPRTETGSGSP-NH2	9.57
Compound 189 (reading uncertain) peptide: Y[Aib]EGTFTSDYSILLEEIAAREFIEWLLAGGPSSGAGEAPGEAPGASHLSTAQTQRLSAELHK(Chem. 27)LATLPRTETGSGSP-NH2	3.18

--- query ---
Problem: Please give measured hGIPR Potency, no HSA, EC50 [pM] of the following entry: Compound 219 (also: further groups not given here) peptide: Y[Aib]EGTFTSDYSILLEEIAAREFIEWLLAGGPSSGAGQAPGQAEGASHLSTAQTQRLSAELHKLATLPRTETGSGSP-NH2
Solution: 0.5
